Values compiled from paper PMC7789354.

- Experiment: Bi-directional Caco-2 permeability (transport) assay
- Type: in vitro ADME, human
- Condition parameters: Caco-2, OCT 10 μM; MRP2 inhibition (probenecid 1 mM)
Assay metric: Papp B→A (×10⁻⁶ cm/s)
One number for each entry, in ×10⁻⁶ cm/s.

Input line: Quick one: Papp B→A of C[C@@H](O)[C@@H]1NC(=O)[C@H](CCCCN)NC(=O)[C@@H](Cc2c[nH]c3ccccc23)NC(=O)[C@H](Cc2ccccc2)NC(=O)[C@@H](NC(=O)[C@H](N)Cc2ccccc2)CSSC[C@@H](C(=O)N[C@H](CO)[C@@H](C)O)NC1=O [OCT, octreotide] ?
Output line: 0.31
